Test system: anaphylactic bronchospasm (antigen-induced SRS-A mediated bronchoconstriction)
Assay: Inhibition of anaphylactic bronchospasm in sensitized guinea pigs
Assay type: in vivo, guinea pig
Conditions: Cavia porcellus, iv, 0.25 h, Dose 10 mpk, read-out: % Inhibition of anaphylactic bronchospasm
Protocol: The anti-allergy method of this invention is identified by tests which measure a compound's inhibition of anaphylactic bronchospams-in sensitized guinea pigs having antigen-induced SRS-A mediated bronchoconstriction. Allergic bronchospams was measured in actively sensitized guinea pigs by a modification of the procedure of Konzett and Rossler, Arch. Exptl. Pathol. […] Bronchoconstriction was measured as the peak increase in intratracheal pressure occurring within 15 minutes after antigen challenge.
Parameter: inhibition in vivo at 10 mg/kg. Scope: all listed entries.
Give a bare numeral; the unit % is implied.

Some compounds with recorded inhibition in vivo at 10 mg/kg:
INSERT INTO results (compound, target_desc, unit_abbrev, measured_value) VALUES
  ('CC1(C)C(c2ccc(O)c(O)c2)=CC(=O)c2c(O)cc(O)cc21', 'anaphylactic bronchospasm (antigen-induced SRS-A mediated bronchoconstriction)', '%', 17),
  ('COc1cc(OC)c2c(c1)C(C)(C)C(c1ccc(OC)c(OC)c1)CC2=NOC(=O)C(C)(C)C (centres unmarked)', 'anaphylactic bronchospasm (antigen-induced SRS-A mediated bronchoconstriction)', '%', 20),
  ('COc1cc(OC)c2c(c1)C(C)(C)C(c1ccc(OC)c(OC)c1)CC(=O)O2 (centres unmarked) [drawing 89 [X=O; R3/R4=O; P=OCH3]]', 'anaphylactic bronchospasm (antigen-induced SRS-A mediated bronchoconstriction)', '%', 4),
  ('COc1cc(OC)c2c(c1)C(C)(C)C(c1ccc(OC)c(OC)c1)CC2=NNC(N)=O (centres unmarked)', 'anaphylactic bronchospasm (antigen-induced SRS-A mediated bronchoconstriction)', '%', 20);

Moving on to the next compound.
Request: Write inhibition in vivo at 10 mg/kg of COc1cc(OC)c2c(c1)C(C)(C)C(c1ccc(OC)c(OC)c1)CC2=NO (centres unmarked) ; system used: anaphylactic bronchospasm (antigen-induced SRS-A mediated bronchoconstriction)
Response: 50

All values here come from patent US5225436A.
